The measured values listed here are drawn from patent EP0182317A2.

# assay comment: 50 % lethal dose from toxic deaths in the Ehrlich carcinoma experiment
# Assay type: in vivo, male ICR mouse
# condition info: mouse, in vivo, ip; mice bearing Ehrlich carcinoma, in the abdomen once a day for 7 days
Form field: LD50 at 720 h (one value per entry).

# compound, LD50 at 720 h
measured = [
    ("CCO[Se](=O)c1ccccc1 (stereo not shown) [Compound 2, ethyl phenylseleninate]", "16 to 32 mg/kg"),
    ("O=[Se]1OCCO1 [Compound 14, 1,2-ethanediol selenite]", "4 to 8 mg/kg"),
    ("CC1CO[Se](=O)O1 (stereo not shown) [Compound 15, 1,2-propanediol selenite]", "8 mg/kg"),
    ("CC(Cl)CO[Se](=O)OCC(C)Cl (stereo not shown) [Compound 13, di(2-chloropropyl) selenite]", "8 to 16 mg/kg"),
]
